Assign protein stability index to each entry below.
B1: PTPRD (parent)
chain: LTKLREMGREKCHQYWPAERSARY

variants of: B1; assay: protein stability index of a GFP-peptide fusion (GPS, HEK-293T) (PSI 1-6); higher = more stable; conditions: c terminus: a fixed tail appended;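 also: lentivirally expressed fusions sorted by FACS into six bins by GFP to DsRed ratio, PSI derived from sequencing read proportions per bin multiplied by bin number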
One number for each entry.

Record excerpt, results attached:
{"biopolymer_sequence": "LTKLREMGREKCHQYWPAERSARE [Y24E]", "observed_value": 3.1}
{"biopolymer_sequence": "LTKLREMGREKCHQYWPAERSADY [R23D]", "observed_value": 3.39}
{"biopolymer_sequence": "LTKLRWMGREKCHQYWPAERSARY [E6W]", "observed_value": 1.82}
{"biopolymer_sequence": "LTKLREMGREKCHQYWPAHRSARY [E19H]", "observed_value": 2.06}
{"biopolymer_sequence": "LTKLREFGREKCHQYWPAERSARY [M7F]", "observed_value": 2.41}

Working through the 5 variants below one at a time, give protein stability index for each.
1. LTKLREMGREKCHQYWPAERSAQY [R23Q]
2. LTKLREMGREKCHWYWPAERSARY [Q14W]
3. LTKLREMGREKCHQYPPAERSARY [W16P]
4. LTKLREMGREKCHQYWPAESSARY [R20S]
5. LTKLREMGREKCPQYWPAERSARY [H13P]

**A:**
1: 1.74; 2: 1.41; 3: 3.27; 4: 2.3; 5: 2.43

Working through the 6 variants below one at a time, give protein stability index for each.
1. LTKLREMGREKCHQYWPAERSAYY [R23Y]
2. LTKLREMGREKTHQYWPAERSARY [C12T]
3. LTKLREMGREKKHQYWPAERSARY [C12K]
4. LTKLREMGREKCHQYWPACRSARY [E19C]
5. LTKLREMGREKCHQYWPAFRSARY [E19F]
6. LTKCREMGREKCHQYWPAERSARY [L4C]

**A:**
[1.6, 3.38, 2.27, 2.21, 2.29, 2.12]
